test system: grafted B16 F0 murine melanoma tumour; assay: Biodistribution of the ^125I-labelled molecules in the melanoma-bearing mouse (autoradiography of whole-body sections); conditions: 1 H after i.v. administration, ^125I-labelled compound
Counter-ions that a name gives are not always drawn.
Here the recorded Concentration of radioactivity, pancreas, Mean is given for each entry.
Give the number first and the unit second.

Please review the following examples before continuing.
Quick check: Concentration of radioactivity, pancreas, Mean on grafted B16 F0 murine melanoma tumour, item CCN(CC)CCNC(=O)c1nc2ccc(I)cc2[nH]1.Cl.Cl [compound 26] ? 6.17 % ID/g

Quick check: Concentration of radioactivity, pancreas, Mean on grafted B16 F0 murine melanoma tumour, item CCN(CC)CCNC(=O)c1ccc2cc(I)ccc2c1 [compound 3, hydrochloride] ? 10.18 % ID/g

Quick check: Concentration of radioactivity, pancreas, Mean on grafted B16 F0 murine melanoma tumour, item CCN(CC)CCNC(=O)c1cc2cc(I)ccc2[nH]1 [compound 10, hydrochloride] ? 7.15 % ID/g

Quick check: Concentration of radioactivity, pancreas, Mean on grafted B16 F0 murine melanoma tumour, item CCN(CC)CCNC(=O)c1ccc2cc(I)ccc2n1.Cl.Cl [compound 31] ? 9.80 % ID/g

Alright, here's another molecule for you.
Quick check: Concentration of radioactivity, pancreas, Mean on grafted B16 F0 murine melanoma tumour, item CCN(CC)CCNC(=O)c1ccc(I)nc1 [compound 7, dihydrochloride] ? 3.94 % ID/g

====

Here the recorded Biodistribution, Mean, uvea is given for each entry.
tested on: grafted B16 F0 murine melanoma tumour; test: Biodistribution of the ^125I-labelled molecules in the melanoma-bearing mouse (autoradiography of whole-body sections); details: uvea; 72 H
Counter-ions that a name gives are not always drawn.
Please reply with the value in numeric form only.

Please review the following examples before continuing.
Would you kindly share the measured Biodistribution, Mean, uvea for CCN(CC)CCNC(=O)c1cccc2cc3cc(I)ccc3nc12 [compound 111, dihydrochloride] ? 1.96

Would you kindly share the measured Biodistribution, Mean, uvea for CCN(CC)CCNC(=O)c1cnc2cc(I)ccc2n1.Cl.Cl ? 25.26

Would you kindly share the measured Biodistribution, Mean, uvea for CCN(CC)CCNC(=O)c1c[nH]c2ccc(I)cc2c1=O [compound 35, dihydrochloride] ? 6.79

Would you kindly share the measured Biodistribution, Mean, uvea for CCN(CC)CCNC(=O)c1cc2c(I)cccc2cn1 [compound 39, dihydrochloride] ? 9.73

Would you kindly share the measured Biodistribution, Mean, uvea for CCCN(CCC)CCCCNC(=O)c1ccc2cc(I)ccc2n1 [compound 49, dihydrochloride] ? 19.78

Alright, here's another molecule for you.
Would you kindly share the measured Biodistribution, Mean, uvea for CCN(CC)CCNC(=O)c1ccc2cncc(I)c2n1.Cl.Cl ? 13.06

====

Here the recorded Biodistribution, Mean, lungs is given for each entry.
test system: grafted B16 F0 murine melanoma tumour; assay: Biodistribution of the ^125I-labelled molecules in the melanoma-bearing mouse (autoradiography of whole-body sections); settings: lungs; 1 H
Counter-ions that a name gives are not always drawn.
Please reply with the value in numeric form only.

Please review the following examples before continuing.
Would you kindly share the measured Biodistribution, Mean, lungs for CCN(CC)CCNC(=O)c1c[nH]c2ccc(I)cc2c1=O [compound 35, dihydrochloride] ? 2.06

Would you kindly share the measured Biodistribution, Mean, lungs for CCN(CC)CCNC(=O)c1cnc2cc(I)ccc2n1.Cl.Cl [compound 46] ? 7.83

Would you kindly share the measured Biodistribution, Mean, lungs for CCN(CC)CCNC(=O)c1cccc2cc3cc(I)ccc3nc12 [compound 111, dihydrochloride] ? 1.70

Would you kindly share the measured Biodistribution, Mean, lungs for CCCN(CCC)CCCCNC(=O)c1ccc2cc(I)ccc2n1 [compound 49, dihydrochloride] ? 8.33

Would you kindly share the measured Biodistribution, Mean, lungs for CCN(CC)CCNC(=O)c1cc2c(I)cccc2cn1 [compound 39, dihydrochloride] ? 3.68

Alright, here's another molecule for you.
Would you kindly share the measured Biodistribution, Mean, lungs for CCN(CC)CCNC(=O)c1ccc2cncc(I)c2n1.Cl.Cl [compound 142] ? 2.36

====

test: Elimination of the molecules: cumulative urinary and faecal excretion 0-72 hours; format: in vivo, mouse; conditions: cumulative excretion 0-72 hours, faeces, mice in metabolic cages
Counter-ions that a name gives are not always drawn.
MEASURED_METRIC: Faecal elimination 0-72 hours (Faeces) (%)
Report the value in % with no unit label.

Would you kindly share the measured Faecal elimination 0-72 hours (Faeces) for CCN(CC)CCNC(=O)c1nc2ccccn2c1I [compound 16, dihydrochloride] ? 24.0

Would you kindly share the measured Faecal elimination 0-72 hours (Faeces) for CCN(CC)CCNC(=O)c1nc2ccc(I)cc2[nH]1.Cl.Cl ? 40.7

Alright, here's another compound for you.
Would you kindly share the measured Faecal elimination 0-72 hours (Faeces) for CCN(CC)CCNC(=O)c1cccc2c(=O)c3cc(I)ccc3[nH]c12 [compound 84, hydrochloride] ? 38.4

====

test system: grafted B16 F0 murine melanoma tumour; assay: Biodistribution of the ^125I-labelled molecules in the melanoma-bearing mouse (autoradiography of whole-body sections); details: 6 H after i.v. administration, ^125I-labelled compound
Counter-ions that a name gives are not always drawn.
Decision: Concentration of radioactivity, spleen, Mean beneath 8 % ID/g gives true; Concentration of radioactivity, spleen, Mean meeting or exceeding 8 % ID/g gives false.

Some solved entries appear below for comparison.
Given CCN(CC)CCNC(=O)c1ccc2cc(I)ccc2n1.Cl.Cl , is recorded Concentration of radioactivity, spleen, Mean strictly lower than 8 % ID/g? true

Given CCN(CC)CCNC(=O)c1cc2cc(I)ccc2[nH]1 [compound 10, hydrochloride] , is recorded Concentration of radioactivity, spleen, Mean strictly lower than 8 % ID/g? true

Given CCN(CC)CCNC(=O)c1nc2ccc(I)cc2[nH]1.Cl.Cl , is recorded Concentration of radioactivity, spleen, Mean strictly lower than 8 % ID/g? false

Please turn your attention to the following entry.
Given CCN(CC)CCNC(=O)c1ccc(I)nc1 [compound 7, dihydrochloride] , is recorded Concentration of radioactivity, spleen, Mean strictly lower than 8 % ID/g? true

====

system: grafted B16 F0 murine melanoma tumour; assay: Biodistribution of the ^125I-labelled molecules in the melanoma-bearing mouse (autoradiography of whole-body sections); conditions: spleen; 1 H
Where a name gives a salt, the structure may show the parent alone.
MEASURED_METRIC: Biodistribution, Mean, spleen

Please review the following examples before continuing.
Would you kindly share the measured Biodistribution, Mean, spleen for CCN(CC)CCNC(=O)c1cccc2cc3cc(I)ccc3nc12 [compound 111, dihydrochloride] ? 3.11

Would you kindly share the measured Biodistribution, Mean, spleen for CCN(CC)CCNC(=O)c1ccc2cncc(I)c2n1.Cl.Cl ? 5.38

Would you kindly share the measured Biodistribution, Mean, spleen for CCN(CC)CCNC(=O)c1c[nH]c2ccc(I)cc2c1=O [compound 35, dihydrochloride] ? 1.24

Would you kindly share the measured Biodistribution, Mean, spleen for CCCN(CCC)CCCCNC(=O)c1ccc2cc(I)ccc2n1 [compound 49, dihydrochloride] ? 18.88

New cases:
Would you kindly share the measured Biodistribution, Mean, spleen for CCN(CC)CCNC(=O)c1cc2c(I)cccc2cn1 [compound 39, dihydrochloride] ? 2.83

Would you kindly share the measured Biodistribution, Mean, spleen for CCN(CC)CCNC(=O)c1cnc2cc(I)ccc2n1.Cl.Cl ? 14.21

====

test system: grafted B16 F0 murine melanoma tumour; experiment: Biodistribution of the ^125I-labelled molecules in the melanoma-bearing mouse (autoradiography of whole-body sections); conditions: liver; 6 H
Structures can show the parent of a compound that is named as a salt.
MEASURED_METRIC: Biodistribution, Mean, liver
Please reply with the value in numeric form only.

Please review the following examples before continuing.
Would you kindly share the measured Biodistribution, Mean, liver for CCN(CC)CCNC(=O)c1ccc2cncc(I)c2n1.Cl.Cl ? 1.49

Would you kindly share the measured Biodistribution, Mean, liver for CCN(CC)CCNC(=O)c1cnc2cc(I)ccc2n1.Cl.Cl ? 7.53

Would you kindly share the measured Biodistribution, Mean, liver for CCCN(CCC)CCCCNC(=O)c1ccc2cc(I)ccc2n1 [compound 49, dihydrochloride] ? 3.89

Would you kindly share the measured Biodistribution, Mean, liver for CCN(CC)CCNC(=O)c1cccc2cc3cc(I)ccc3nc12 [compound 111, dihydrochloride] ? 2.16

Would you kindly share the measured Biodistribution, Mean, liver for CCN(CC)CCNC(=O)c1c[nH]c2ccc(I)cc2c1=O [compound 35, dihydrochloride] ? 0.32

Alright, here's another molecule for you.
Would you kindly share the measured Biodistribution, Mean, liver for CCN(CC)CCNC(=O)c1cc2c(I)cccc2cn1 [compound 39, dihydrochloride] ? 1.54

====

Here the recorded Urinary elimination 0-72 hours (Urine) is given for each entry.
assay: Elimination of the molecules: cumulative urinary and faecal excretion 0-72 hours; type: in vivo, mouse; conditions: cumulative excretion 0-72 hours, urine, mice in metabolic cages
Structures can show the parent of a compound that is named as a salt.
Report the value in % with no unit label.

Would you kindly share the measured Urinary elimination 0-72 hours (Urine) for CCCN(CCC)CCCCNC(=O)c1cnc2cc(I)ccc2n1 [compound 144, dihydrochloride] ? 45.7

Would you kindly share the measured Urinary elimination 0-72 hours (Urine) for CCN(CC)CCNC(=O)c1cnc2cc(I)ccc2n1.Cl.Cl [compound 46] ? 70.2

New cases:
Would you kindly share the measured Urinary elimination 0-72 hours (Urine) for CCCN(CCC)CCCCNC(=O)c1ccc2cc(I)ccc2n1 [compound 49, dihydrochloride] ? 67.2

Would you kindly share the measured Urinary elimination 0-72 hours (Urine) for CCN(CC)CCNC(=O)c1cc2cc(I)ccc2[nH]1 [compound 10, hydrochloride] ? 21.5
